Assay: Human HepG2 cell viability assay in 384 well format
Assay type: toxicity, cell-based
Set-up: dose 125 nL, time 70.5 hour; concentration not given beside the values
Settings: HepG2 cells, read-out: Inhibition
Please provide measured cytotoxicity at 70.5 h for the entries that follow.
One number for each entry, in %.

Consider the reported cytotoxicity at 70.5 h for these compounds:
# Compound, Unit abbreviation, Result
records = [
    ("c1ccc(NC[C@@H]2CCC[C@@H]3CN(Cc4cccnc4)C[C@@H]32)nc1", "%", -5.9),
    ("CCNC(=O)[C@@H]1C[C@@H](NC(=O)c2ccc(C)cc2O)CN1CCCSC", "%", -3.38),
    ("CC(=O)N1CCC(N[C@@H]2CO[C@H](CNC(=O)c3cccs3)[C@H]2O)CC1", "%", 4.51),
    ("CN1CCCN(C(=O)c2cccc(S(=O)(=O)NCC3(C)COC3)c2)CC1", "%", -0.00641),
    ("Cc1nc(CN2CCCC(C)(CO)C2)no1 (stereo unspecified)", "%", -4.42),
    ("NC(=O)C(NC1CCN(CC2CCCCC2)CC1)c1ccccc1 (stereo unspecified)", "%", -4.82),
    ("O=C(c1cc2c(F)cccc2[nH]1)N1CCC(Nc2cccnn2)CC1", "%", 0.884),
    ("c1cc2nc(C3CCNCC3)nn2cc1NC1CCC1", "%", 23.2),
]

Quick batch: cytotoxicity at 70.5 h for everything below.
1. NC(=O)C1CCN(C(=O)CCSCc2ccccc2)CC1
2. COc1cccc2ccc(CN3CCN(c4ncccc4C)CC3)nc12
3. Cc1cc(C)cc(OCC(O)CN2CCN(c3nccs3)CC2)c1 (stereo unspecified)

-5.5
-7.71
8.55

----------
Assay: Human HepG2 cell viability assay in 384 well format
Assay type: toxicity, cell-based
Parameters: dose 125 nL, time 70.5 hour; concentration not given beside the values
Conditions: HepG2 cells, read-out: Inhibition
Measure: cytotoxicity at 70.5 h (%)
One number for each entry, in %.

Consider the reported cytotoxicity at 70.5 h for these compounds:
# Compound, cytotoxicity at 70.5 h [%]
measured = [
    ("Cn1ccc(C(=O)NC2CCC23CCN(Cc2ccc(F)cc2)CC3)c1 (stereo not given)", -0.822),
    ("Cc1nc(N2CCCCC2)ncc1-c1cc(=O)[nH]c(N2CCCC2)n1", 2.6),
    ("CC(C)c1cncnc1-c1cc(F)cc2c1OC(CN)C2 (stereo not given)", -1.8),
    ("Cc1cn2c(n1)C(CNCc1cnn3ccccc13)CCC2 (stereo not given)", -5.6),
    ("O=C(NCCN1CCCCC1)c1cccc(Cl)c1Cl", -8.61),
]

Quick batch: cytotoxicity at 70.5 h for everything below.
1. Cn1cc(-c2cnc(N3CCCC3)nc2)cc1C(=O)N1CCOCC1
2. CCc1ccc(S(=O)(=O)NCCC(O)c2ccoc2)s1 (stereo not given)
3. Cc1cc(N2CCN(Cc3ccccc3)CC(O)C2)nc(N)n1 (stereo not given)
4. CC(=O)N1CCCC2(CCN(Cc3ccc(Cl)c(C(F)(F)F)c3)C2)C1 (stereo not given)
5. COc1cccc(N2CC3(CCN(c4ccncn4)C3)CC2=O)c1 (stereo not given)
6. O=C1[C@@H]2CN(Cc3ccccn3)C[C@H]2CCN1c1cncnc1
7. CC(C(=O)N1CCCC1)N1CCCN(C(=O)Oc2ccccc2)CC1 (stereo not given)
8. CCCn1cnnc1CNC(=O)CC1C(=O)NCCN1C(C)C (stereo not given)

1: -27.4; 2: -10.1; 3: -2.11; 4: -5.69; 5: 14.6; 6: -4.74; 7: -10.6; 8: 10.7

Quick batch: cytotoxicity at 70.5 h for everything below.
1. Cc1nc(CNC(=O)NCCc2ccc(N(C)C)cc2)cs1
2. Cc1ccc(-c2nc(CNC3CCc4ncnn4C3)co2)c(C)c1 (stereo not given)
3. COc1ncc(NC(=O)Nc2cc(C)ccc2OC)cn1
4. CN(C)C(=O)c1cnc2n1CCN(Cc1ccccc1)C2

1: -0.758; 2: 1.75; 3: 39.1; 4: -15.3

Quick batch: cytotoxicity at 70.5 h for everything below.
1. CN(C)c1ccc(C(=O)Nc2ccn(Cc3ccccn3)n2)cn1
2. COCC1CN(c2ncccn2)Cc2cnn(CC3CC3)c21 (stereo not given)
3. N#CCCCOc1cccnc1NC(=O)CCC1CCCC1
4. Cc1cc(C)n(CC2CN(CCOc3ccccc3C#N)CCO2)n1 (stereo not given)
5. COc1ccc2c(c1)CC(NCc1cccc(CO)c1)CC2 (stereo not given)
6. CCOc1ccc(CC(=O)N2CCCC2c2cc(C)on2)cc1 (stereo not given)

14.6
-6.23
-0.625
-5.02
-6.72
-3.15

Quick batch: cytotoxicity at 70.5 h for everything below.
1. O=c1n(Cc2ccccn2)nc(C2CCNCC2)n1Cc1ccccc1
2. O=C(C1CC1)N1CCOC2(CCNCC2)C1

1: 1.51; 2: -10.9

----------
Test: Human HepG2 cell viability assay in 384 well format
Type: toxicity, cell-based
Parameters: dose 125 nL, time 70.5 hour; concentration not given beside the values
Conditions: HepG2 cells, read-out: Inhibition
Measure: cytotoxicity at 70.5 h (%)
Give bare numbers, in %.

# Compound, cytotoxicity at 70.5 h / %
rows = [
    ("Cc1cc(N2CCCC2c2cc(Nc3cnccn3)nc(C)n2)ncn1 (stereo not drawn)", -11.4),
    ("CNS(=O)(=O)CCCN1CCCC1c1noc(C2CC2)n1 (stereo not drawn)", -6.19),
    ("Cc1csc(C2CCCCN2C(=O)CN(C)Cc2ccccc2)n1 (stereo not drawn)", -8.36),
    ("CCC[C@]12CN3C[C@](CCC)(CN(C1)C3c1[nH]c(=O)[nH]c(=O)c1C)C2=O (stereo partly drawn)", -10.7),
    ("Cn1ccc(C(=O)NC2CCN(c3ncccn3)CC2)cc1=O", -15.3),
]

Quick batch: cytotoxicity at 70.5 h for everything below.
1. Cc1ccn2ncc(C(=O)N3CCCC(n4ccnc4C)C3)c2n1 (stereo not drawn)
2. N#CCCN(CCC#N)Cc1ccc(Br)c2cccnc12
3. COc1ccc(F)c(CN2CCCC(O)(CNCc3ccoc3)C2=O)c1 (stereo not drawn)

[-2.96, 4.54, -0.0121]

Quick batch: cytotoxicity at 70.5 h for everything below.
1. CNC(=O)[C@H]1C[C@@H]2CN(S(=O)(=O)Cc3ccccc3)C[C@@H]2N1C
2. CNC(=O)[C@@]12CCCN(c3ncccn3)[C@@H]1CN(c1ncc(C)cn1)C2
3. O=C(NCc1ccon1)Nc1cc(F)ccc1N1CCCCC1
4. COCC1CN(C(=O)CC2=CCCCC2)Cc2nnn(CC3CC3)c21 (stereo not drawn)

[-3.87, -4.37, 0.987, -12]

Quick batch: cytotoxicity at 70.5 h for everything below.
1. CCO[C@@H]1CN(S(=O)(=O)c2cn(C)cn2)[C@@H]2CCCO[C@@H]21
2. COCC(=O)N1CCC2(C1)c1ccccc1S(=O)(=O)N2C (stereo not drawn)
3. O=C(Nc1ccc(CCN2CCC(O)CC2)cc1)C1CCCCC1

[-10.2, -9.08, -2.92]

Quick batch: cytotoxicity at 70.5 h for everything below.
1. Cc1cc(NC(=O)c2nn(C3CCS(=O)(=O)C3)c3c2CCCC3)no1 (stereo not drawn)
2. CCC(C)[C@H](NC(=O)c1cc(Br)ccc1-n1cnnn1)C(=O)OC (stereo partly drawn)
3. O=C(Nc1cccnc1)C1=NN(c2ccccc2)C(=O)CN1
4. CCOc1ncccc1NC(=O)NC1CCN(C(=O)C2CC2)CC1
5. COCCOc1ccccc1C(=O)N1CCCCC1c1nccs1 (stereo not drawn)
6. COCCNC(=O)CCn1ncc2c(Cl)cccc21
7. Cc1nc(C(=O)N(C)CC2CC2)nn1-c1ccccc1C(C)C
8. Cc1nccnc1C1CCN(C2CCCC2O)CC1 (stereo not drawn)

[-24.1, 42, 6.02, 3.99, 50.2, 16.6, 36, -0.726]

----------
Assay: Human HepG2 cell viability assay in 384 well format
Format: toxicity, cell-based
Design: dose 125 nL, time 70.5 hour; concentration not given beside the values
Details: HepG2 cells, read-out: Inhibition
Please provide measured cytotoxicity at 70.5 h for the entries that follow.
One number for each entry, in %.

Consider the reported cytotoxicity at 70.5 h for these molecules:
# Molecule, Measure, Result
data = [
    ("CN(C)c1nccc(C2CCCN(C(=O)CO)C2)n1 (stereo not drawn)", "cytotoxicity at 70.5 h", -7.31),
    ("Cc1nc(CN2CCCC(N(C)Cc3nc(C)c(C)o3)C2)no1 (stereo not drawn)", "cytotoxicity at 70.5 h", -2.87),
    ("Cc1ncnc2c1CCN(c1ccccn1)CC2", "cytotoxicity at 70.5 h", -14),
    ("O=C(CCOc1cccc(F)c1)N1CCCC(n2cccn2)C1 (stereo not drawn)", "cytotoxicity at 70.5 h", -2.03),
    ("COc1c(C)cnc(CN(C)C(=O)c2ccccc2O)c1C", "cytotoxicity at 70.5 h", 0.1),
    ("OC1(CNCCSc2ccccn2)CNCCOC1 (stereo not drawn)", "cytotoxicity at 70.5 h", 1.38),
]

Quick batch: cytotoxicity at 70.5 h for everything below.
1. CCOc1cc(NC(=O)N2CCC3(CCOCC3)C2)ccc1C
2. Cc1ccccc1N1CCN(C(=O)c2cnc(C3CC3)nc2)C(C)C1 (stereo not drawn)
3. CS(=O)(=O)CCN1CCSCC1c1ccc(Cl)cc1 (stereo not drawn)
4. Cc1nn(C)c(N(C)C)c1CNCc1cccnc1OC(C)C
5. O=C1CC(c2ccc(F)cc2)Cc2[nH]c(=O)c(C(=O)O)cc21 (stereo not drawn)
6. O=C(NCc1cccc(F)c1)N1CCC2(CC(=O)N(c3ccsc3)C2)C1 (stereo not drawn)

1. -7.4
2. -2.79
3. -1.17
4. 21.9
5. -8.55
6. 4.74

Quick batch: cytotoxicity at 70.5 h for everything below.
1. CS(=O)(=O)c1ccc(CC(=O)N2CCN3CCNC(=O)C3C2)cc1 (stereo not drawn)
2. Cc1nc(Nc2cnccn2)cc(C2CCCN(C(C)C)C2)n1 (stereo not drawn)

1: -2.91; 2: -8.23

Quick batch: cytotoxicity at 70.5 h for everything below.
1. Cc1ncc(CN(C)CC2CCCN2c2cccnn2)s1 (stereo not drawn)
2. O=C(CCN1CCCCO1)N1CCC(CO)(CCc2ccccc2)CC1
3. COCc1cncc2c1CCN(C(=O)c1ccoc1C)C2
4. CN1C(=O)CC(c2cnn(C)c2)C12CCN(C(=O)c1cscn1)CC2 (stereo not drawn)
5. Cc1nn(C)cc1CN1CCN(CC2(c3ccccc3)CC2)CC1

1: 8.83; 2: -10.2; 3: -2.3; 4: -2.36; 5: -1.67

Quick batch: cytotoxicity at 70.5 h for everything below.
1. COCCN1CCN(S(=O)(=O)c2ccccc2)Cc2cccnc21
2. O=C(Cc1cccs1)N1CCc2nnc(COc3cncnc3)n2CC1
3. CCCc1nc(N2CCC(C)CC2)c2c(n1)c(C)nn2CC

1. -5.54
2. 14.8
3. -10.6

Quick batch: cytotoxicity at 70.5 h for everything below.
1. N#Cc1cc2cc(Cl)cnc2nc1O
2. CC(C)c1nccn1-c1cccc(C2CCN(C)CC2)n1
3. Cn1ccc(NCc2cc3cc(F)ccc3o2)n1
4. COc1ccc(-c2cnc3n2CCNC32CCN(S(C)(=O)=O)CC2)cc1

1: -12; 2: 27.3; 3: -4.66; 4: -6.19

Quick batch: cytotoxicity at 70.5 h for everything below.
1. CCc1nc(CN2CCN(C(=O)CCc3ccccc3)CC2)cs1
2. COC1CCN(C(=O)CCc2c(C)nc3ccnn3c2C)CC1
3. O=C(CS(=O)(=O)C1CCCC1)NC1CCc2nccn2C1 (stereo not drawn)
4. Cc1cc(NC(=O)C(C)C)n(-c2nc(C)c(C)c(=O)[nH]2)n1

3
-0.665
-9.54
56.9

Quick batch: cytotoxicity at 70.5 h for everything below.
1. COc1ccc(-c2nnc(CNCCn3cccn3)o2)cc1
2. Cc1nn(CC(=O)N2CCN(Cc3cnn(C)c3C)CC2)cc1Cl
3. Cc1nn(C)cc1C(=O)N1CCCC(c2nccn2CC2CCC2)C1 (stereo not drawn)
4. CN(CCc1ccncc1)c1cnn(C)c(=O)c1Br

1: -9.2; 2: -9.22; 3: -28.4; 4: -24.9

Quick batch: cytotoxicity at 70.5 h for everything below.
1. CCOC(=O)c1ccc(NC(=O)c2cc3c([nH]c2=O)CCCC3)cc1
2. O=C(NC1CC1)c1cccc(S(=O)(=O)NCCc2nc(C3CC3)no2)c1

1. -14.4
2. -6.39
